biological target: GAK kinase (Homo sapiens); assay: GAK binding assay (T7 phage kinase competition binding); conditions: determined for selected compounds with % control <5 at 10 μM
pKd: −log10 of the molar value.
Is pKd at least 7? Then YES. If not, NO.

COMPOUND: CCOc1snc2cc(-c3cc(OC)c(OC)cc3Br)cnc12
TGT: GAK kinase (Homo sapiens)
ANSWER_LABEL: NO
--
COMPOUND: COc1cc(Br)c(-c2cnc3c(N4CCOCC4)snc3c2)cc1OC
TGT: GAK kinase (Homo sapiens)
ANSWER_LABEL: NO
--
COMPOUND: COc1ccc(-c2cnc3c(NCC(O)CO)snc3c2)cc1OC (stereo not drawn)
TGT: GAK kinase (Homo sapiens)
ANSWER_LABEL: NO
--
COMPOUND: CCN(CC)c1snc2cc(-c3ccc(OC)c(OC)c3)cnc12
TGT: GAK kinase (Homo sapiens)
ANSWER_LABEL: NO
--
COMPOUND: COc1ccc(-c2cnc3c(-c4ccccc4)snc3c2)cc1OC
TGT: GAK kinase (Homo sapiens)
ANSWER_LABEL: NO
--
COMPOUND: COc1ccc(-c2cnc3c(NCCCCCO)snc3c2)cc1OC
TGT: GAK kinase (Homo sapiens)
ANSWER_LABEL: NO
--
COMPOUND: COC(=O)c1ccc(-c2cnc3c(N4CCOCC4)snc3c2)cc1OC
TGT: GAK kinase (Homo sapiens)
ANSWER_LABEL: YES
--
COMPOUND: COc1ccc(-c2cnc3c(N4CCC(=O)CC4)snc3c2)cc1OC
TGT: GAK kinase (Homo sapiens)
ANSWER_LABEL: YES
--
COMPOUND: COc1ccc(-c2cnc3c(-c4ccncc4)snc3c2)cc1OC
TGT: GAK kinase (Homo sapiens)
ANSWER_LABEL: YES
--
COMPOUND: COc1cccc(-c2cnc3c(N4CCOCC4)snc3c2)c1
TGT: GAK kinase (Homo sapiens)
ANSWER_LABEL: NO

---

Molecular target: GAK kinase (Homo sapiens)
Construct: made in house; host or cells: E. coli host derived from the BL21 strain, infected with T7 phage
Sequence (O14976 1-1311): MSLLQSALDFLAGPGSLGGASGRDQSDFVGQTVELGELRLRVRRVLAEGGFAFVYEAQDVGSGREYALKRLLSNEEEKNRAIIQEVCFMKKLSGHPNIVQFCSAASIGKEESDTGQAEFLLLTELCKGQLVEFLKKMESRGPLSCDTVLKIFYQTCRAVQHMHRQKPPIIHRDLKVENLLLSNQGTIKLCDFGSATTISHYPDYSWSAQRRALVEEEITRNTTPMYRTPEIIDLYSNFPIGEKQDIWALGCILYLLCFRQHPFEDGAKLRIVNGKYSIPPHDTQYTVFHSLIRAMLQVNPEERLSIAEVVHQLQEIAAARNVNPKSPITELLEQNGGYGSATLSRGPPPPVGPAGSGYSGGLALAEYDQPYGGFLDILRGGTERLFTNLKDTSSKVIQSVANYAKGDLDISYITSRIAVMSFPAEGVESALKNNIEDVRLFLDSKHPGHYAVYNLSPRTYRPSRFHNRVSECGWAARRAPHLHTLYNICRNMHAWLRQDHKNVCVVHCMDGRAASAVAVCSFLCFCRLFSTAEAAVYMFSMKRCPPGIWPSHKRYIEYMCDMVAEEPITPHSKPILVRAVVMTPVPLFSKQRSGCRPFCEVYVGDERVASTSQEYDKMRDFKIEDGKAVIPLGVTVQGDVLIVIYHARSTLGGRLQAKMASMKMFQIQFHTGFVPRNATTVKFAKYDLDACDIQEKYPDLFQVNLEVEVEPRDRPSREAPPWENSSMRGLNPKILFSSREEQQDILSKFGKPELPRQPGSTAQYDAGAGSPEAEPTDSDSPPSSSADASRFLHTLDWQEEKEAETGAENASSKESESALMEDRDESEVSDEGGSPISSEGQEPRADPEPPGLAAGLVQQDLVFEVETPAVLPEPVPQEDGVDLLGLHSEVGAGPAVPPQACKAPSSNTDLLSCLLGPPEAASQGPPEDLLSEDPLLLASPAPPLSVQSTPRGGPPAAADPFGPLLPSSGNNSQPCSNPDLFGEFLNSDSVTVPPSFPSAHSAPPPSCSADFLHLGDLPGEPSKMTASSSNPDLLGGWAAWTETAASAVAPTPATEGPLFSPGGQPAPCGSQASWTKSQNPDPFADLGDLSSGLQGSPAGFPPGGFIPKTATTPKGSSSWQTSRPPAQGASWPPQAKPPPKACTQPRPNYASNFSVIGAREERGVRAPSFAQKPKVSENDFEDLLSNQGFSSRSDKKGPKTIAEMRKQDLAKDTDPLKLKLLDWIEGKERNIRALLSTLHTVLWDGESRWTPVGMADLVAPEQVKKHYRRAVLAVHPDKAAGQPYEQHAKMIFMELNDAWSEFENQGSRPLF
Test: GAK binding assay (T7 phage kinase competition binding)
Details: single concentration of 10 μM; lower numbers indicate stronger hits; read-out: % Ctrl
Item-by-item account of remaining binding at 10 µM

COMPOUND: CCOC(=O)N1CCC(Nc2snc3cc(-c4ccc(OC)c(OC)c4)cnc23)CC1
TGT: GAK kinase (Homo sapiens)
UNIT_SYMBOL: %
remaining binding at 10 µM: 40

COMPOUND: COc1ccc(-c2cnc3c(N4CCOCC4)snc3c2)cc1
TGT: GAK kinase (Homo sapiens)
UNIT_SYMBOL: %
remaining binding at 10 µM: 0.6

COMPOUND: COC(=O)c1ccc(-c2cnc3c(N4CCOCC4)snc3c2)cc1OC
TGT: GAK kinase (Homo sapiens)
UNIT_SYMBOL: %
remaining binding at 10 µM: 2.8

COMPOUND: COc1ccc(-c2cnc3c(NCC(O)CO)snc3c2)cc1OC (stereo not drawn)
TGT: GAK kinase (Homo sapiens)
UNIT_SYMBOL: %
remaining binding at 10 µM: 2.6

COMPOUND: COc1ccc(-c2cnc3c(N4CCC5(CC4)OCCO5)snc3c2)cc1OC
TGT: GAK kinase (Homo sapiens)
UNIT_SYMBOL: %
remaining binding at 10 µM: 12

COMPOUND: COc1cc(Br)c(-c2cnc3c(N4CCOCC4)snc3c2)cc1OC
TGT: GAK kinase (Homo sapiens)
UNIT_SYMBOL: %
remaining binding at 10 µM: 1.1

COMPOUND: CCOc1snc2cc(-c3cc(OC)c(OC)cc3Br)cnc12
TGT: GAK kinase (Homo sapiens)
UNIT_SYMBOL: %
remaining binding at 10 µM: 4.3

COMPOUND: Brc1cnc2c(N3CCOCC3)snc2c1
TGT: GAK kinase (Homo sapiens)
UNIT_SYMBOL: %
remaining binding at 10 µM: 50

COMPOUND: COc1ccc(-c2cnc3c(OC)snc3c2)cc1OC
TGT: GAK kinase (Homo sapiens)
UNIT_SYMBOL: %
remaining binding at 10 µM: 19

COMPOUND: CCN(CC)c1snc2cc(-c3ccc(OC)c(OC)c3)cnc12
TGT: GAK kinase (Homo sapiens)
UNIT_SYMBOL: %
remaining binding at 10 µM: 0.05

COMPOUND: COc1ccc(-c2cnc3c(NCCCCCO)snc3c2)cc1OC
TGT: GAK kinase (Homo sapiens)
UNIT_SYMBOL: %
remaining binding at 10 µM: 0.85

COMPOUND: COc1cccc(-c2cnc3c(N4CCOCC4)snc3c2)c1
TGT: GAK kinase (Homo sapiens)
UNIT_SYMBOL: %
remaining binding at 10 µM: 0.05

COMPOUND: COC(=O)c1ccc(-c2cnc3c(N4CCOCC4)snc3c2)cc1
TGT: GAK kinase (Homo sapiens)
UNIT_SYMBOL: %
remaining binding at 10 µM: 9

COMPOUND: COc1ccc(-c2cnc3c(-c4ccccc4)snc3c2)cc1OC
TGT: GAK kinase (Homo sapiens)
UNIT_SYMBOL: %
remaining binding at 10 µM: 0.15

COMPOUND: COc1snc2cc(Br)cnc12
TGT: GAK kinase (Homo sapiens)
UNIT_SYMBOL: %
remaining binding at 10 µM: 100

COMPOUND: COc1ccc(-c2cnc3c(-c4ccncc4)snc3c2)cc1OC
TGT: GAK kinase (Homo sapiens)
UNIT_SYMBOL: %
remaining binding at 10 µM: 0.05

COMPOUND: COc1ccc(-c2cnc3c(N4CCOCC4)snc3c2)cc1OC(C)=O
TGT: GAK kinase (Homo sapiens)
UNIT_SYMBOL: %
remaining binding at 10 µM: 0

COMPOUND: COc1ccc(-c2cnc3c(N4CCC(=O)CC4)snc3c2)cc1OC
TGT: GAK kinase (Homo sapiens)
UNIT_SYMBOL: %
remaining binding at 10 µM: 0

COMPOUND: COc1cc(Br)c(-c2cnc3c(N4CCC(C)CC4)snc3c2)cc1OC
TGT: GAK kinase (Homo sapiens)
UNIT_SYMBOL: %
remaining binding at 10 µM: 92

COMPOUND: COc1snc2cc(-c3ccccc3)cnc12
TGT: GAK kinase (Homo sapiens)
UNIT_SYMBOL: %
remaining binding at 10 µM: 9.4

COMPOUND: Nc1snc2cc(Br)cnc12
TGT: GAK kinase (Homo sapiens)
UNIT_SYMBOL: %
remaining binding at 10 µM: 97
